- TEST: Inhibitory activity against Escherichia coli thymidine phosphorylase
EXPERIMENTAL ENDPOINT: IC50 (µM)

1) C=CCNC(=S)NC=C1C(=O)NC(=O)NC1=O 94.8
